tested_system: T1, Her2 ectodomain-Fc (UniProt P04626 23-652)
T1 construct: Her2 ectodomain
test_summary: SPR; Biacore T200, 25 °C; Her2 ectodomain-Fc immobilized by amine-coupling on a CM5 chip at 1180 RU; nanobodies injected at 30 µL/min in 20 mM Hepes, 150 mM NaCl, 3 mM EDTA, 0.005% Tween 20, pH 7.4; eight concentrations between 250 and 3.5 nM; 1:1 Langmuir model
cond: both partners purified
Exercise: for every item that follows, state its recorded pKd.
One number for each entry, as −log10 of the molar value.

A10 mutKG.1 (VHH, A10 mutKG (G29a) with five framework mutations printed as Q8E, F13L, S51A, R90K, A91P; source: gene synthetized by Doulix, pET-derived vectors, produced as previously reported [17]) VHH: EVQLQESGGGLVQPGGSLRLSCAASGAGTSNISNMGWFRQAPGKEREFVAAISRAESRPLYYADSVKGRFTISRDNSKNTVYLQMNSLKPEDTATYYCAYMPLVRHKAYWGQGTQVTVSS
8.00
A10 wt (VHH, anti-Her2 nanobody isolated by panning a synthetic library; also called anti-Her2 ectodomain nanobody A10; source: pET-derived vectors, produced as previously reported [17]) VHH: EVQLQASGGGFVQPGGSLRLSCAASGATSNISNMGWFRQAPGKEREFVSAISRAESRPLYYADSVKGRFTISRDNSKNTVYLQMNSLRAEDTATYYCAYMPLVRHKAYWGQGTQVTVSS
8.31
A10 mutG0 (VHH, A10 wt with a glycine inserted after S31 in CDR1 (G31a); also called G31a; source: gene synthetized by Twist Bioscience, pET-derived vectors, produced as previously reported [17]) VHH: EVQLQASGGGFVQPGGSLRLSCAASGATSGNISNMGWFRQAPGKEREFVSAISRAESRPLYYADSVKGRFTISRDNSKNTVYLQMNSLRAEDTATYYCAYMPLVRHKAYWGQGTQVTVSS
7.63

Return reported pKd; argument: A10 mutKG (VHH, A10 wt with a glycine inserted after A29 in CDR1 (G29a); also called G29a; source: gene synthetized by Twist Bioscience, pET-derived vectors, produced as previously reported [17]) VHH: EVQLQASGGGFVQPGGSLRLSCAASGAGTSNISNMGWFRQAPGKEREFVSAISRAESRPLYYADSVKGRFTISRDNSKNTVYLQMNSLRAEDTATYYCAYMPLVRHKAYWGQGTQVTVSS
7.46
